Every entry's value here was drawn from paper PMC4336329.

Reported hERG current change (%, negative = inhibition) at 10uM values for a set of molecules
system.tested: human ether-à-go-go-related gene (hERG) potassium channel (human, UniProt Q12809);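 also: peak tail current of the secondary pulse compared with the same well before compound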
Sequence (Q12809 whole entry, looked up): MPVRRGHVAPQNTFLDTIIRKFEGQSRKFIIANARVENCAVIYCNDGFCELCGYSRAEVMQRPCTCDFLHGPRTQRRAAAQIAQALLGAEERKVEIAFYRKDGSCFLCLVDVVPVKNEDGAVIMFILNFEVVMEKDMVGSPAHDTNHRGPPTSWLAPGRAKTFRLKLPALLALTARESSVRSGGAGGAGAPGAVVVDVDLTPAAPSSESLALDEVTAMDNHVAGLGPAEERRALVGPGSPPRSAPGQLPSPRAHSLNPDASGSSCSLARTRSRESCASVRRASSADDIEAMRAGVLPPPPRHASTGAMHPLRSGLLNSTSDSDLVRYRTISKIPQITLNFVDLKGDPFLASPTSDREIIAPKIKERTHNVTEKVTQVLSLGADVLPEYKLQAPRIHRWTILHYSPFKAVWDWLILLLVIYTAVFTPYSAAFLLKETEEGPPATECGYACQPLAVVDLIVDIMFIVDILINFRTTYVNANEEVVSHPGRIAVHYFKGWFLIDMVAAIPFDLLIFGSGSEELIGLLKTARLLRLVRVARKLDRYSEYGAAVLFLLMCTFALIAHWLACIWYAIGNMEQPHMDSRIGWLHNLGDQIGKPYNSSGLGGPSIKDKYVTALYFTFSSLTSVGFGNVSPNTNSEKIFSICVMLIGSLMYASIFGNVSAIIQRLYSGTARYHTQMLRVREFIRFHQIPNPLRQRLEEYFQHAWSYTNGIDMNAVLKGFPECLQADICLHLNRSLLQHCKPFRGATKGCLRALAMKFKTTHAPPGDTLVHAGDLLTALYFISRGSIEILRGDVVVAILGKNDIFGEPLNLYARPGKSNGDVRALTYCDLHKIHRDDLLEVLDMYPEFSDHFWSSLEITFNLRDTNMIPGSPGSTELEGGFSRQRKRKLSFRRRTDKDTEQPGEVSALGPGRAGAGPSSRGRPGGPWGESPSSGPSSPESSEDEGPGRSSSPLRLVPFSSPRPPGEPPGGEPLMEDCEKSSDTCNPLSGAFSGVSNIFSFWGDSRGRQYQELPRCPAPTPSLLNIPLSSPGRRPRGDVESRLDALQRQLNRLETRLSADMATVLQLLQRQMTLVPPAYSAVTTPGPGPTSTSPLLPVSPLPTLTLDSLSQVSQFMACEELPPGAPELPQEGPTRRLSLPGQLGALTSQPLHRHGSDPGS
protocol.notes: primary screen, population patch clamp on CHO cells stably expressing hERG; higher = less effect of the substance
About 14,000 (4.5%) of roughly 310,000 compounds showed an effect of 50% or more. The effect is printed as a negative number. This is one part of a sample in which strong results are shown more often than they occur.
measured.parameter: hERG current change (%, negative = inhibition) at 10uM (%)

molecule	test.result
CCCCCn1c(=O)c(C(=O)Nc2ccccc2N)c(O)c2ccccc21	21.4
O=C(O)c1cccc(N2C(=O)Nc3ccccc3N2O)c1	10.2
O=C(Nc1ccc(F)cc1)c1cccc(C(=O)Nc2ccc(F)cc2)c1	-28.4
O=c1[nH]c(O)c(N=Nc2ccc3c(c2)OCCO3)c(=O)[nH]1	14.2
O=C(Nc1ccc(Cl)cc1)c1cc2c(cc1O)[nH]c1ccccc12	21
CCOC(=O)c1c(CSC(=N)N)n(-c2ccccc2)c2cc(Br)c(OC(C)=O)cc12	-77.9
Cc1ccc2c(c1)sc(C)[n+]2CCCS(=O)(=O)[O-]	29.7
Fc1cnc(Cl)nc1N1CCN(c2ccccc2)CC1	-17.4
O=C(NC1CC1)C1CCN(C(=O)c2ccc(Cl)cc2)CC1	19.8
COc1ccc(N(C2=NCCCS2)S(=O)(=O)c2ccc(C(C)(C)C)cc2)cc1	0.221
Br.CCCCCCCCOC(=O)c1c(CSC(=N)N)n(C)c2cc(Br)c(OC(C)=O)cc12	-22.8
O=C(O)C1C2C=CC(C2)C1C(=O)NCc1cccs1 (stereo not drawn)	9.44
CCN(CC)CCC(C)OC(c1ccccc1)c1ccccc1.O=C(O)CC(O)(CC(=O)O)C(=O)O (stereo not drawn)	-52.2
O=C(COC(=O)c1ccc2ncsc2c1)Nc1cccc(Cl)c1	2.07
Cc1ccc(C)c(Cn2nnc3c(=O)[nH]c(C4CCN(C(=O)c5cccs5)CC4)nc32)c1	-66.5
O=C(C1CCCCC1)N1CCCC(c2nc3c(nnn3Cc3ccccc3)c(=O)[nH]2)C1 (stereo not drawn)	-8.73
O=C(c1ccc(Cl)cc1)N1CCC(C(=O)N2CCCc3ccccc32)CC1	-76.4
Cc1c(NC(=O)CSc2nnnn2-c2ccc(C(=O)O)cc2)c(=O)n(-c2ccccc2)n1C	20.8
O=C(Nc1ccccc1N1CCCC1)C1CCN(C(=O)c2ccc(Cl)cc2)CC1	-59.8
COc1ccccc1N1CCN(C(=O)CCNC(=O)Cn2ccc3ccccc3c2=O)CC1	2.62
O=C(C1CCCCC1)N1CCCc2ccccc21	-5.03
Cc1ccc(C)c(Cn2nnc3c(=O)[nH]c(C4CCCN(C(=O)c5cccs5)C4)nc32)c1 (stereo not drawn)	0.859
COc1ccc2c(c1)C(=O)[C@H](O)[C@@H](c1ccc(OC)c(Br)c1)O2	12.9
CCOC(=O)C(C(=O)Nc1cccc(C)c1)C1CCCCC1 (stereo not drawn)	-6.99
O=C(O)CCC1=C2c3ccccc3CCN2C(=O)CC1	9.77
Cc1cccn2c(=O)nc(SCC(=O)N3CC(C)OC(C)C3)nc12 (stereo not drawn)	1.96
CCOC(=O)c1c(C)n(C)c2c1cc(OC(C)=O)c1ccccc12	19.7
CCn1c(=O)c(C(=O)CN2CC(C)OC(C)C2)c(N)n(Cc2ccccc2)c1=O (stereo not drawn)	-32.6
Cc1cc(NC(=O)CSc2ccc(-c3ccc(Br)cc3)nn2)no1	11.1
CCOC(=O)CN1C(=O)N[C@@H](c2cccc(C(F)(F)F)c2)C(C(C)=O)=C1C	11.8
O=C(O)c1ccccc1C(=O)NCCCCCCNC(=O)c1ccccc1C(=O)O	7.63
O=C(COc1ccc(Cl)cc1Br)N1CCN(S(=O)(=O)c2ccccc2)CC1	-9.19
Cc1ccc(C)c(Cn2nnc3c(=O)[nH]c(C4CCCN(C(=O)c5ccco5)C4)nc32)c1 (stereo not drawn)	-38.3
Cc1ccc(Cn2nnc3c(=O)[nH]c(C4CCN(C(=O)c5cccs5)CC4)nc32)cc1	-33
CC(C(=O)O)n1nc2ccccc2n1 (stereo not drawn)	21.4
CCCCC(=O)N1CCCC(c2nc3c(nnn3Cc3cc(C)ccc3C)c(=O)[nH]2)C1 (stereo not drawn)	-52.2
Cc1ccc(C)c(Cn2nnc3c(=O)[nH]c(C4CCCN(C(=O)CC(C)C)C4)nc32)c1 (stereo not drawn)	-14.6
C=CCCC(=O)Nc1nc(C)c(-c2csc(Nc3ccc(Cl)cc3)n2)s1	14.9
COc1ccccc1C(=O)C1CCCN(C(=O)Nc2ccccc2F)C1 (stereo not drawn)	37.3

====

system.tested: human ether-à-go-go-related gene (hERG) potassium channel (human, UniProt Q12809);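 also: peak tail current of the secondary pulse compared with the same well before compound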
protocol.notes: primary screen, population patch clamp on CHO cells stably expressing hERG; higher = less effect of the substance
The whole screen tested about 310,000 compounds, of which about 14,000 (4.5%) showed an effect of 50% or more. Effects have a minus sign here. The list comes from a sample in which strong results are over-represented; it also holds close analogues and randomly drawn compounds.
// hERG current change (%, negative = inhibition) at 10uM lookup, one value per entry
measured.parameter: hERG current change (%, negative = inhibition) at 10uM (%)

compound	test.result
COc1ccc2oc(C(=O)N(C)CCOc3ccccc3)c(C)c2c1	-28.9
O=C(C1CCC1)N1CCC(O)(c2cccc(F)c2)CC1	14.6
O=C(CN1C(=O)c2ccccc2S1(=O)=O)N1CCN(c2ccc(F)cc2)CC1	-7.37
C/C(CC(=O)NC1CCCCC1)=N\NC(=O)COc1ccc(C)cc1Br	-22.8
C/C(=N/NC(=O)CNC(=O)Cc1ccc(Cl)cc1)c1ccco1	4.04
CCn1cc(C(=O)N(C)Cc2ccc(OC(F)F)cc2)c(=O)c2ccc(C)nc21	-65.1
O=C(CSc1ncccn1)NCc1ccccc1Cl	-2.63
COc1ccc2oc(C(=O)N(C)Cc3ccc(OC(F)F)cc3)c(C)c2c1	-53.8
O=C(CCn1c(=O)oc2ccccc21)NCCN1CCOCC1	-2.83
CCn1cc(C(=O)OCC(=O)N(C)Cc2ccccc2)c(=O)c2ccc(C)nc21	-11.1
COc1ccc(CCN(C)C(=O)c2oc3ccccc3c2C)cc1OC	-0.562
O=C(CCn1c(=S)oc2ccccc21)N1CCN(c2ccc(F)cc2)CC1	-25.3
O=C1CCN(C(=O)CCCn2c(=O)oc3ccccc32)CC1	17
Cc1ccccc1Nc1nc(N)nc(-c2oc3ccccc3c2C)n1	4.69
COCCn1c(Cc2ccccc2)nnc1SCC(=O)Nc1cc(C)on1	-5.36
COc1ccc2cc(C#N)c(SCC(=O)N3CC(=O)Nc4ccccc43)nc2c1	14.9
COC(=O)/C(=C/N(C)C)C(=O)N1CCN(c2ccc(Cl)c(Cl)c2)CC1	-25
Cc1c(C(=O)N(C)Cc2ccc(OC(F)F)cc2)oc2ccccc12	-69.9
O=C(COc1ccc(Br)cc1Cl)NC(=S)N1CCc2ccccc21	21.7
CCCOc1ccccc1C1NC(=O)NC(C)=C1C(=O)OCc1ccccc1 (stereo not drawn)	6.23
O=C(CCn1c(=O)oc2ccccc21)N1CCN(c2ccccc2F)CC1	-23.8

====

system.tested: human ether-à-go-go-related gene (hERG) potassium channel (human, UniProt Q12809);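 also: peak tail current of the secondary pulse compared with the same well before compound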
protocol.notes: primary screen, population patch clamp on CHO cells stably expressing hERG; higher = less effect of the substance
Among all 310,000 compounds or so, about 14,000 (4.5%) showed an effect of 50% or more. The effect is printed as a negative number. Shown is part of a subset that was picked to be rich in strong results.
Tick TRUE if hERG current change (%, negative = inhibition) at 10uM is -10% or greater. Tick FALSE if hERG current change (%, negative = inhibition) at 10uM is less than -10%.

compound	classification
NC(=O)C1CCN(c2cc(Cl)ccc2[N+](=O)[O-])CC1	TRUE
COc1ccc(NC(=O)CSc2c3c(nc4ccccc24)CCC3)c(OC)c1	FALSE
CCOc1ncccc1C(=O)OCC(=O)c1ccccc1Br	TRUE
O=C(NNc1ccnc2cc(Cl)ccc12)C1CCCCC1	TRUE
CC(=O)c1cccc(N(C(=O)CNC(=O)c2ccco2)C(C(=O)NC2CCCC2)c2ccc(C)o2)c1 (stereo not shown)	TRUE
O=C(C1CCCCC1)N1CCN(c2ccnc3cc(Cl)ccc23)CC1	FALSE
O=C(C1CC1)N1CCN(c2ccnc3cc(Cl)ccc23)CC1	FALSE
COc1ccc(OC)c(NC(=O)COC(=O)c2c3c(nc4ccccc24)CCCC3)c1	TRUE
CN1CCN(c2oc(-c3ccccc3F)nc2S(=O)(=O)c2ccc(Cl)cc2)CC1	FALSE
COc1ccc(C)cc1Nc1c2c(nc3ccccc13)CCC2	FALSE
CCOC(=O)Cn1ccc(NC(=O)COc2ccc(F)cc2F)n1	TRUE
Cc1cc(Cl)ccc1OC(C)C(=O)OCC(=O)Nc1ccc2[nH]c(=O)[nH]c2c1 (stereo not shown)	TRUE
COc1ccc(OC)c(Nc2c3c(nc4ccccc24)CCC3)c1	FALSE
COc1cccc(-c2cccc(NC(=O)C3CCN(Cc4ccon4)CC3)c2)c1	FALSE
CCOc1ccc2nc(NS(=O)(=O)Cc3ccccc3)sc2c1	TRUE
COc1ccccc1Nc1c2c(nc3ccc(N)cc13)CCCC2	FALSE
COc1ccc(Nc2c3c(nc4ccccc24)CCC3)c(OC)c1	FALSE
Cc1cccc(CN2CCC(C(=O)Nc3cccc(-c4cscn4)c3)CC2)n1	FALSE
Cc1cccc(CN2CCC(C(=O)Nc3ccc(-n4nc(C)cc4C)cc3)CC2)n1	FALSE
Cc1ccc(S(=O)(=O)c2nc(-c3ccccc3)oc2N2CCC(C(N)=O)CC2)cc1	FALSE
CCn1c(=O)cc(SCC(=O)N2CCCCC2)c2ccccc21	TRUE
O=C(NCc1ccccc1Cl)C(=O)NCC1OCCN1S(=O)(=O)c1cccs1 (stereo not shown)	FALSE
Cc1cc(C)n(CCCN2CCC(C(=O)Nc3cccc(-c4cccc(F)c4)c3)CC2)n1	FALSE
CC1CN(c2ccnc3cc(Cl)ccc23)CC(C)O1 (stereo not shown)	FALSE
O=C(Nc1cccc(-c2cccc(Cl)c2)c1)C1CCN(Cc2ccccn2)CC1	FALSE
O=S(=O)(c1ccccc1)c1nc(-c2ccccc2)oc1N1CCCC1	TRUE
Cc1cccc(C(=O)NNS(=O)(=O)c2ccc(F)cc2)c1	TRUE
Cc1cccc(CN2CCC(C(=O)Nc3cccc(-c4cccc(F)c4)c3)CC2)n1	FALSE
NC(=O)C1CCN(c2oc(-c3ccccc3)nc2S(=O)(=O)c2ccc(Br)cc2)CC1	FALSE
COc1ccccc1NC(=O)CSc1c2c(nc3ccccc13)CCC2	FALSE
CN1CCN(c2oc(-c3ccccc3)nc2S(=O)(=O)c2ccc(Br)cc2)CC1	FALSE
O=C(Nc1cccc(-c2cccc(Cl)c2)c1)C1CCN(Cc2ccon2)CC1	FALSE
Cc1cc(-c2ccco2)n(CC(=O)NCc2ccco2)n1	TRUE
COc1ccccc1CCC(=O)Nc1ncc(C)s1	TRUE
O=S(=O)(c1ccc(F)cc1)c1nc(-c2ccccc2F)oc1N1CCCCC1	FALSE
Cc1ccccc1C(=O)N1CCC(C(=O)Nc2cccc(F)c2)CC1	TRUE
COc1ccc(C)cc1Nc1nc(N)c2ccccc2n1.Cl	FALSE
CCc1cccc(NC(=O)C2CCCN2S(=O)(=O)c2ccc3c(c2)n(C)c(=O)c(=O)n3C)c1 (stereo not shown)	TRUE
CCOC(=O)c1cnc(SC)nc1Oc1cccc(NS(=O)(=O)c2ccccc2)c1	TRUE
Cl.O=C(O)C1CCN(Cc2ccccn2)CC1	TRUE
